- SYSTEM_NAME: Interleukin-1 receptor-associated kinase 1 (Homo sapiens) (UniProt P51617)
- Sequence (P51617 whole entry, looked up): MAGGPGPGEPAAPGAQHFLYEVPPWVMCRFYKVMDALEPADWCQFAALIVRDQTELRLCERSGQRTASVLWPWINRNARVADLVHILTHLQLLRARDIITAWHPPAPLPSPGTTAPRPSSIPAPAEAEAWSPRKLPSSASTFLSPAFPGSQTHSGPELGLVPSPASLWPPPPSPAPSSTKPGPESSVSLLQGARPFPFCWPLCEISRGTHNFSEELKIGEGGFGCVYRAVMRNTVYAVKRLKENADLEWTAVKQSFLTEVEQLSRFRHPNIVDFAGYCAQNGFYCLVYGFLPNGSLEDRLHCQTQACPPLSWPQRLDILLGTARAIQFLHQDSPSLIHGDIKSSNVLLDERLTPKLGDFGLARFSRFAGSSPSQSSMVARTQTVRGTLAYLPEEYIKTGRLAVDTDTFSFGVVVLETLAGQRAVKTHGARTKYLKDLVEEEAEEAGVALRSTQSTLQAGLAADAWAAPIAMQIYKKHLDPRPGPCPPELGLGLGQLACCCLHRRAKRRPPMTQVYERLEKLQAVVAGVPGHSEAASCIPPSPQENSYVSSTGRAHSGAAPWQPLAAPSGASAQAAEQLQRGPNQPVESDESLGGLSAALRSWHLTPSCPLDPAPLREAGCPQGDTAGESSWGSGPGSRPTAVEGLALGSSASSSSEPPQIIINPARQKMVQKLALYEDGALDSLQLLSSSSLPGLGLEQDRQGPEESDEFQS
- SETTINGS: at 10 µM
VALUE_KIND: residual activity (%)

> print(dat)
                                smiles.data                               system.name  readout.number
1              Cc1ccc(S(=O)(=O)/C=C/C#N)cc1  Interleukin-1 receptor-associated kinase 1 (Homo sapiens) (UniProt P51617)             109
2  COc1ccc(CNc2nc(N(CCO)CCO)nc3c2ncn3C(C)C)cc1  Interleukin-1 receptor-associated kinase 1 (Homo sapiens) (UniProt P51617)             107
3       CCN(CC)CCCCN1c2ccccc2Oc2ccc(Cl)cc21  Interleukin-1 receptor-associated kinase 1 (Homo sapiens) (UniProt P51617)             105
4  Cc1cccc(-c2[nH]c(C(C)(C)C)nc2-c2ccc3c(c2)OCO3)n1  Interleukin-1 receptor-associated kinase 1 (Homo sapiens) (UniProt P51617)              75
5  O=C(Nc1cccc(Nc2cc(Nc3cccc(C(F)(F)F)c3)ncn2)c1)C1CC1  Interleukin-1 receptor-associated kinase 1 (Homo sapiens) (UniProt P51617)              96
6         COc1ccc(OC)c2c(=S)c3ccccc3[nH]c12  Interleukin-1 receptor-associated kinase 1 (Homo sapiens) (UniProt P51617)             102

----------
compounds and their reported residual activity
- SYSTEM_NAME: Homeodomain-interacting protein kinase 3 (Homo sapiens) (UniProt Q9H422)
- Sequence (Q9H422 whole entry, looked up): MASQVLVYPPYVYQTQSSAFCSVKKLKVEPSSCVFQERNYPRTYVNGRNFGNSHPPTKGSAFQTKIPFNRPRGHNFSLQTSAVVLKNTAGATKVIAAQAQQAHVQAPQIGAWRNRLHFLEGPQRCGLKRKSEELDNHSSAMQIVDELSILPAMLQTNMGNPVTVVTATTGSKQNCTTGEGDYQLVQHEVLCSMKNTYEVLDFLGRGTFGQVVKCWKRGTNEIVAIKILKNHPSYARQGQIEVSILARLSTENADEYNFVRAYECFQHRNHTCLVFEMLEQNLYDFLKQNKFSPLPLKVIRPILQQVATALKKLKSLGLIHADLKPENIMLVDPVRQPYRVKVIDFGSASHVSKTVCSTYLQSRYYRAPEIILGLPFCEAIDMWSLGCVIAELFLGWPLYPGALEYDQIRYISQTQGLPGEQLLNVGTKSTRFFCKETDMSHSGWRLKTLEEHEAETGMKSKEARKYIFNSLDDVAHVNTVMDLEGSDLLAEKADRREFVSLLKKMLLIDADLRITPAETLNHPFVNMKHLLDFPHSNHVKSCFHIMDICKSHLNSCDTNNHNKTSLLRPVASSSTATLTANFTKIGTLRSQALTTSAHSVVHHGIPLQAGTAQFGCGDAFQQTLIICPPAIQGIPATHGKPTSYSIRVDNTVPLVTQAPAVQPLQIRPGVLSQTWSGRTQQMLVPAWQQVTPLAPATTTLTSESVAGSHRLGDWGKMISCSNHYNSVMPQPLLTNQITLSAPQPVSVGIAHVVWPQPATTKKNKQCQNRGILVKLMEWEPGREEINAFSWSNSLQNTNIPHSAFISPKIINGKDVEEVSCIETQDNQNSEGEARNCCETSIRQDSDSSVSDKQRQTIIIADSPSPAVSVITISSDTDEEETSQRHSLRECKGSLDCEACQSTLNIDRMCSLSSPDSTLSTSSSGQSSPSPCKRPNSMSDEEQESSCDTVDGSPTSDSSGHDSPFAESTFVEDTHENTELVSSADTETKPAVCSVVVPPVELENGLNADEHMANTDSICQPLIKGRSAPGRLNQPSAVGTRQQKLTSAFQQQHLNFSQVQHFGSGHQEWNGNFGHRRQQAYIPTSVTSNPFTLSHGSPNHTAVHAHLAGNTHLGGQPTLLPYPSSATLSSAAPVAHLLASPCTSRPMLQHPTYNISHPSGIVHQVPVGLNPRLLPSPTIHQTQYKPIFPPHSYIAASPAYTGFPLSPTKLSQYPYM
- SETTINGS: at 10 µM
VALUE_KIND: residual activity

> print(dat)
                                 smiles.data         value.kind  result
 1  COc1cc2ncnc(Nc3ccc(Oc4ccccc4)cc3)c2cc1OC  residual activity    105%
 2       CCOc1cc2ncnc(Nc3cccc(Br)c3)c2cc1OCC  residual activity     92%
 3  Cn1cc(/C=C2\C(=O)Nc3ccc(S(N)(=O)=O)cc32)c2ccccc21  residual activity     32%
 4   Nc1ccc2ncnc(NCCc3ccc(Oc4ccccc4)cc3)c2c1  residual activity     93%
 5           Ic1cccc(CSc2nnc(-c3ccncc3)o2)c1  residual activity    100%
 6      CN(C)c1ccc(/C=C2\C(=O)Nc3ccccc32)cc1  residual activity     94%
 7  COc1ccc(S(=O)(=O)N(CCO)c2ccccc2CN(C)C/C=C/c2ccc(Cl)cc2)cc1  residual activity    102%
 8               Cc1cc2ncc(-c3ccccc3)nc2cc1C  residual activity    107%
 9             COc1cc2ncc(-c3ccccc3)nc2cc1OC  residual activity    100%
10  Nc1nc(Nc2ccc(S(N)(=O)=O)cc2)nn1C(=S)Nc1c(F)cccc1F  residual activity     21%
11     CCC(=O)Nc1ccc2ncnc(Nc3cccc(Br)c3)c2c1  residual activity     99%
12  CCN(CC)C(=O)c1ccc(Nc2nc(OCC3CCCCC3)c3nc[nH]c3n2)cc1  residual activity     62%
13  CO[C@@H]1[C@H](N(C)C(=O)c2ccccc2)C[C@H]2O[C@]1(C)n1c3ccccc3c3c4c(c5c6ccccc6n2c5c31)C(=O)NC4  residual activity     68%
14  O=[N+]([O-])c1ccc(-c2nc(-c3ccc(F)cc3)c(-c3ccncc3)[nH]2)cc1  residual activity    109%
15  C[C@@H](N)[C@H]1CC[C@H](C(=O)Nc2ccncc2)CC1  residual activity     95%
16     CC(C)n1cnc2c(NCc3ccccc3)nc(NCCCO)nc21  residual activity    106%
17  O=C1Nc2cc(Br)ccc2/C1=C1/Nc2ccccc2/C1=N\O  residual activity     88%
18  O=C(O)c1ccc2c3c1cccc3c(=O)n1c3ccccc3nc21  residual activity     48%
19  Oc1ccc(-c2nc(-c3ccc(F)cc3)c(-c3ccncc3)[nH]2)cc1  residual activity    105%
20  N#C/C(=C(\N)Sc1ccc(N)cc1)c1ccccc1C(F)(F)F  residual activity     86%
21  CO[C@H]1[C@@H](OC)C[C@H](C)[C@@H](OC)C2=CC(=O)C=C(NC(=O)/C(C)=C/C=C/[C@H](OC)[C@@H](OC(N)=O)/C(C)=C/[C@@H]1C)C2=O  residual activity    105%
22  CC(C)n1cnc2/c(=N/c3cccc(Cl)c3)nc(NCCO)[nH]c21  residual activity     83%
23  COc1ccc(CNc2nc(N(CCO)CCO)nc3c2ncn3C(C)C)cc1  residual activity     98%
24  O=C1c2ccccc2-[n+]2ccc3c([nH]c4ccccc43)c21  residual activity     87%
25  O=C1NC(=O)/C(=C/c2ccc3c(c2)OC(F)(F)O3)S1  residual activity     88%
26         COc1ccc(OC)c2c(=S)c3ccccc3[nH]c12  residual activity     73%
27       Cc1ccc(NC2=CC(=O)c3sc(C)nc3C2=O)cc1  residual activity     97%
28  NC(=O)c1ccc2[nH]c(-c3ccc(Oc4ccc(Cl)cc4)cc3)nc2c1  residual activity     98%
29  O=C1NC(=O)c2c1c1c3ccccc3[nH]c1c1[nH]c3cc(Br)ccc3c21  residual activity     89%
30              Oc1c2ccccc2c2c3c(cccc13)N=N2  residual activity     19%
